Measured pEC50 of individual entries
- System: AsPC1
- test.details: MTT viability, 48 h
- Assay type: cell-based, human
- condition.description: Homo sapiens, ASPC1, 48 h, read-out: Activity, EC50 AsPC1
Answer as the number alone; pEC50 is minus log10 of concentration in mol/L.

CN(C)C(=S)N/N=C1\C(=O)Nc2ccccc21	5.66

Which value of pEC50 has been reported for `COc1cc2c(cc1OC)C(=O)N(CCCCN1C(=O)/C(=N\NC(=S)N(C)C)c3ccccc31)CC2` in the records?
5.24

* * *

Measured EC50 of individual entries
- Tested on: KCKO
- test.details: MTT viability, 48 h
- Format: cell-based, mouse
- condition.description: Mus musculus, 48 h, read-out: Activity, EC50 KCKO

GET /values?readout=EC50&system=KCKO&item= COc1cc2c(cc1OC)C(=O)N(CCCCN1C(=O)/C(=N\NC(=S)N(C)C)c3ccccc31)CC2 [Compound 9]
4.51 µM

* * *

- Test system: KP02
- test.details: MTT viability, 48 h
- Assay type: cell-based, mouse
- condition.description: Mus musculus, 48 h, read-out: Activity, EC50 KP02
value.type: EC50 (µM)
// units = µM; emit number, no label

COc1cc2c(cc1OC)C(=O)N(CCCCN1C(=O)/C(=N\NC(=S)N(C)C)c3ccccc31)CC2 [Compound 9]	5.62

GET /values?readout=EC50&system=KP02&item= CN(C)C(=S)N/N=C1\C(=O)Nc2ccccc21 [Compound 7]
2.83

* * *

- System: Panc02
- test.details: MTT viability, 48 h
- Assay type: cell-based, mouse
- condition.description: Mus musculus, Panc02, 48 h, read-out: Activity, EC50 Panc02
value.type: EC50 (µM)
// units = µM; emit number, no label

CN(C)C(=S)N/N=C1\C(=O)Nc2ccccc21	1.21

Proceeding to the next compound to report its EC50.
Which value of EC50 has been reported for `COc1cc2c(cc1OC)C(=O)N(CCCCN1C(=O)/C(=N\NC(=S)N(C)C)c3ccccc31)CC2` in the records?
2.18

* * *

- Test system: MIAPaCa-2
- test.details: MTT viability, 48 h
- Format: cell-based, human
- condition.description: read-out: Activity, EC50 MIAPaCa-2, 48 hr treatment
value.type: pEC50
Answer as the number alone; pEC50 is minus log10 of concentration in mol/L.

Which value of pEC50 has been reported for `CN(C)C(=S)N/N=C1\C(=O)Nc2ccccc21` in the records?
4.74

* * *

- Test system: AsPC1
- test.details: MTT viability, 48 h
- Type: cell-based, human
- condition.description: Homo sapiens, ASPC1, 48 h, read-out: Activity, EC50 AsPC1
Measured EC50 of individual entries

Examples from the recorded data:
NC(=S)N/N=C1\C(=O)Nc2ccccc21 [Compound 8]	> 100 µM
CCCCN1CCN(C2CCCCC2)CC1 [Compound 11, 1-Butyl-4-cyclohexyl-piperazine]	> 100 µM

Proceeding to the next compound to report its EC50.
Which value of EC50 has been reported for CCCCN1CCc2cc(OC)c(OC)cc2C1 [Compound 10] in the records?
> 100 µM

* * *

- System: KCKO
- test.details: MTT viability, 48 h
- Format: cell-based, mouse
- condition.description: Mus musculus, 48 h, read-out: Activity, EC50 KCKO
pEC50: −log10 of the molar value.
Measured pEC50 of individual entries

Examples from the recorded data:
CCCCN1CCN(C2CCCCC2)CC1	< 4.00
CCCCN1CCc2cc(OC)c(OC)cc2C1	< 4.00
NC(=S)N/N=C1\C(=O)Nc2ccccc21	< 4.00

Proceeding to the next molecule to report its pEC50.
Which value of pEC50 has been reported for `CN(C)C(=S)N/N=C1\C(=O)Nc2ccccc21` in the records?
5.50

* * *

Measured EC50 of individual entries
- Test system: KP02
- test.details: MTT viability, 48 h
- Type: cell-based, mouse
- condition.description: Mus musculus, 48 h, read-out: Activity, EC50 KP02

GET /values?readout=EC50&system=KP02&item= `CCCCN1CCN(C2CCCCC2)CC1`
> 100 µM

Query `CCCCN1CCc2cc(OC)c(OC)cc2C1` next
> 100 µM

Query `NC(=S)N/N=C1\C(=O)Nc2ccccc21` next
> 100 µM

* * *

- Tested on: Panc02
- test.details: MTT viability, 48 h
- Type: cell-based, mouse
- condition.description: Mus musculus, Panc02, 48 h, read-out: Activity, EC50 Panc02
Measured EC50 of individual entries

Examples from the recorded data:
CCCCN1CCc2cc(OC)c(OC)cc2C1 [Compound 10]	> 100 µM
CCCCN1CCN(C2CCCCC2)CC1 [Compound 11, 1-Butyl-4-cyclohexyl-piperazine]	> 100 µM

Proceeding to the next molecule to report its EC50.
Which value of EC50 has been reported for NC(=S)N/N=C1\C(=O)Nc2ccccc21 [Compound 8] in the records?
> 100 µM
